Biological target: glutathione S-transferase (GST)-fused full-length human Syk protein (Homo sapiens, UniProt P43405)
Construct: (GST)-fused full-length human Syk protein; GST (glutathione S-transferase); purchased Carna Biosciences
Test: Syk enzyme assay
Type: biochemical
Details: Syk enzyme assay, Test Example 1; read-out: IC50 of Syk-inhibitory activity
pIC50: −log10 of the molar value.
EXPERIMENTAL_ENDPOINT: pIC50

{"columns": ["COMPOUND", "RESULT"],
 "data": [
  ["Cc1ncc(Nc2nc(N[C@H](C3CCC3)[C@H](C)N)c(F)cc2C(N)=O)cc1-n1nccn1", "> 8.00"],
  ["CC(=O)c1cncc(Nc2nc(N[C@@H]3CCCC[C@@H]3N)c(F)cc2C(N)=O)c1 (relative stereo)", "7.30 to 8.00"],
  ["Cc1cc(C)cc(Nc2nc(NCCN)c(Cl)cc2C(N)=O)c1", "> 8.00"],
  ["COc1cc(Nc2nc(NCC(N)=O)c(F)cc2C(N)=O)cc(OC)c1", "6.00 to 7.00"],
  ["NC(=O)c1cc(F)c(N[C@@H]2CCCC[C@@H]2N)nc1Nc1cc(F)c2c(ccn2CCN2CCOCC2)c1 (relative stereo)", "> 8.00"]
]}

Sure, the documented pIC50 for `CC(C)C[C@H](CN)Nc1nc(Nc2ccc3c(cnn3C)c2)c(C(N)=O)cc1F` is > 8.00

Sure, the documented pIC50 for `Cc1nccn1-c1ccc(Nc2nc(N[C@@H]3CCCC[C@@H]3N)c(F)cc2C(N)=O)cn1` is 6.00 to 7.00
